# TEST SUMMARY: inhibitors of poly I:C-induced TLR3 signaling, primary screen, cell-based, poly I:C stimulus, luciferase, 10K MLSCN set (AID 602277)
# CONDITION PARAMETERS: HEK293-TLR3 RL24 IRF3 luciferase reporter, at 10 µM, hits give high values
EXPERIMENTAL READOUT: inhibition (%)
One number for each entry, in %.

Here are 3 molecules. What values of inhibition were reported for them?
1. COc1ccc(-c2nn3c(-c4cccc(C)c4)nnc3s2)cc1OC
2. Cc1cccc(NC(=O)CS(=O)(=O)c2cn(C)c3ccccc23)c1
3. COc1cc(NC(=O)c2cccs2)cc(OC)c1

[-17.1, 22.7, -64.2]

Here are 8 molecules. What values of inhibition were reported for them?
1. Cc1ccccc1-c1nc(Cc2ccccc2)no1
2. CCn1cc(C(=O)N2CCOCC2)c(=O)c2cc(S(=O)(=O)N(C)C3CCCCC3)ccc21
3. CS(=O)(=O)N(CC(=O)NCCSCc1cccc(Cl)c1)c1ccc2c(c1)OCO2
4. Cn1c(SCC(=O)N2CCOCC2)nnc1-c1cnccn1
5. COC(=O)c1nnn(-c2ccccc2)c1N
6. COc1ccc(CNC(=O)c2cnc3n(c2=O)CCS3)cc1
7. Cc1cccc(CCNC(=O)C2CCCN(S(=O)(=O)c3cnc[nH]3)C2)c1 (stereo unspecified)
8. Cc1ccc2[nH]c3c(c2c1)CCc1cn[nH]c1-3

1: -184; 2: 28.4; 3: 1.85; 4: 21.7; 5: 11.8; 6: 29.1; 7: 8.46; 8: -73.4

###

# TARGET ENTITY: Voltage-gated potassium channel subunit beta-2 (Rattus norvegicus)
# TEST SUMMARY: KvBeta positive modulators, primary screen, biochemical, NADPH fluorescence (AID 623);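 further: fluorescence intensity change per second fitted from 20 to 320 s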
# CONDITION PARAMETERS: Recombinant KvBeta, NADPH fluorescence decrease slope, 10 min; at 10 µM; hits give low values
For each record, write down the corresponding NADPH fluorescence slope.
Numbers only.

Before answering, review these 3 worked examples.
> print(dat)
                                   molecule  endpoint.value
1  O=C(O)C1CC=CCC1C(=O)Nc1cc(Cl)ccc1Cl (stereo unspecified)        -2.3e-05
2            Nc1nnnn1NCc1cccc(OCc2ccccc2)c1        -2.7e-05
3  CCOC(=O)c1sc(NC(=O)CSc2n[nH]c(-c3ccccc3)n2)c(C#N)c1C         2.8e-05

Here are 2 molecules. What values of NADPH fluorescence slope were reported for them?
1. Cn1c(=O)c2c(ncn2CC(=O)OCC(=O)NC2CCCc3ccccc32)n(C)c1=O (stereo unspecified)
2. Cc1ccc(-n2ncc3c(N4CCCC4)ncnc32)c(C)c1

["2.2e-06", "-4.9e-06"]

Here are 6 molecules. What values of NADPH fluorescence slope were reported for them?
1. COc1ccccc1N1CCN(C(=O)C(Cc2ccccc2)NC(=O)C2CCCCC2)CC1 (stereo unspecified)
2. O=C(c1cccnc1)N1CCc2ccccc21
3. O=c1c2cc(N3CCOCC3)ccc2[nH]c(=S)n1CCCN1CCCC1
4. O=c1[nH]c(NCc2ccccc2)nc2c1CCCC2
5. CCc1ccc(CN(C)CCc2ccccn2)cc1
6. CCN(CC)CCCNC(=O)c1nn(-c2ccc(OC)cc2OC)c(=O)c2ccccc12

1: -0.000112; 2: 1.9e-05; 3: -1.6e-06; 4: -3.1e-05; 5: -0.000258; 6: -3.1e-05

###

For each record, write down the corresponding NADPH fluorescence slope.
# TARGET ENTITY: Voltage-gated potassium channel subunit beta-2 (Rattus norvegicus)
# TEST SUMMARY: KvBeta positive modulators, primary screen, biochemical, NADPH fluorescence (AID 623);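 further: fluorescence intensity change per second fitted from 20 to 320 s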
# CONDITION PARAMETERS: Recombinant KvBeta, NADPH fluorescence decrease slope, 10 min; at 10 µM; hits give low values
Numbers only.

Before answering, review these 3 worked examples.
> print(dat)
                                   compound  endpoint.value
1               O=C1OC2(c3ccccc3)C3CCCC2C13        -7.3e-05
2  COc1cccc(C2C(C(=O)c3sc(C)nc3C)=C(O)C(=O)N2CCN2CCOCC2)c1OC (stereo unspecified)       -0.000114
3  COc1ccc(OC)c(C(=O)c2coc3ccc(O)c(CN4CCOCC4)c23)c1        -9.1e-06

Here are 3 compounds. What values of NADPH fluorescence slope were reported for them?
1. COc1cc(NC(=O)C2CCCN2S(=O)(=O)c2cccc3cccnc23)cc(OC)c1OC (stereo unspecified)
2. COc1ccc(-n2ncc3c(Nc4cccc(C)c4)ncnc32)cc1
3. CCC1CCCCN1CCNS(=O)(=O)c1ccc2c(c1)oc(=O)n2C (stereo unspecified)

1: -3.4e-05; 2: -1.2e-05; 3: -4.9e-05

Here are 5 compounds. What values of NADPH fluorescence slope were reported for them?
1. Cc1ccc2[nH]c3c(c2c1)CCc1cn[nH]c1-3
2. Clc1cccc(-c2nnc(-c3ccccc3)o2)c1
3. O=c1c2ccccc2ncn1Cc1ccco1
4. Cc1nn(C)c(C)c1S(=O)(=O)N1CCCC(C(=O)N2CCN(c3ccc(Cl)cc3)CC2)C1 (stereo unspecified)
5. CCOC(=O)c1[nH]c2ccccc2c1NC(=O)CN(C)C

["-1.8e-05", "3.1e-05", "-3.2e-05", "-1.7e-05", "-4.7e-05"]

###

# TARGET ENTITY: Voltage-gated potassium channel subunit beta-2 (Rattus norvegicus)
# TEST SUMMARY: KvBeta positive modulators, primary screen, biochemical, NADPH fluorescence (AID 623);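 further: fluorescence intensity change per second fitted from 20 to 320 s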
# CONDITION PARAMETERS: Recombinant KvBeta, NADPH fluorescence decrease slope, 10 min; at 10 µM; hits give low values
For each record, write down the corresponding NADPH fluorescence slope.
One number for each entry.

> print(dat)
                                   molecule  endpoint.value
1  CCN(CC)C(=O)COn1c(SCC(=O)N(CC)CC)nc2ccccc2c1=O        -4.1e-05
2                      Nc1nnnn1/N=C/c1cccs1        -6.6e-05
3  CCOC(=O)Nc1cc(OC)c(OC)cc1Cc1nccc2cc(OC)c(OC)cc12         4.5e-06
4  C=CCn1c(SCc2ccc(C#N)cc2)nnc1-c1cccc(Cl)c1        -4.1e-05
5  COC(=O)[C@H]1CCCN1C(=O)Nc1cccc(Oc2c(F)c(F)c(F)c(F)c2F)c1        -4.7e-05
6                      Nc1nnnn1/N=C/c1ccco1        -4.9e-05

Here are 3 molecules. What values of NADPH fluorescence slope were reported for them?
1. COc1cccc(C2/C(=C(\O)c3ccc(OC)c(OC)c3)C(=O)C(=O)N2c2cc(C)on2)c1 (stereo unspecified)
2. Clc1ccc2c(c1)[C@H]1OCC[C@H]1[C@@H](c1ccco1)N2
3. O=C(NCc1ccccc1)c1cc(-c2ccco2)on1

["-3e-05", "-3.2e-05", "-3.5e-05"]

Here are 2 molecules. What values of NADPH fluorescence slope were reported for them?
1. CCn1c(CSc2nc(C)cc(C)n2)nnc1SCC(=O)Nc1ccccc1
2. Cc1cccc2cc(CN(CCCO)C(=O)Nc3ccc(Cl)cc3)c(=O)[nH]c12

-3.8e-05
1e-05

###

# TARGET ENTITY: Voltage-gated potassium channel subunit beta-2 (Rattus norvegicus) (UniProt P62483)
# Sequence (P62483 whole entry, looked up): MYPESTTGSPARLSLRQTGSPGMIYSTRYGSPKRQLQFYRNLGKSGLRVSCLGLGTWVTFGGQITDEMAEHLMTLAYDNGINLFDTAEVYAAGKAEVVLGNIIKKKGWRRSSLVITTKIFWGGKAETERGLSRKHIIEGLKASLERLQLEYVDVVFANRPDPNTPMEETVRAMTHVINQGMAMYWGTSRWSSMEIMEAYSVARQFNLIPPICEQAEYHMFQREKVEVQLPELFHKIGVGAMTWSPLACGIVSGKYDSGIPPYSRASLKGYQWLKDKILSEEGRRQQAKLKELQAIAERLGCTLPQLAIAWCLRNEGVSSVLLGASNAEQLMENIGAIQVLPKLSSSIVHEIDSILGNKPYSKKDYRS
# TEST SUMMARY: KvBeta enzyme negative modulators, primary screen, biochemical, NADPH fluorescence (AID 622);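 further: slope of raw intensity against log time taken from 70 to 1610 s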
# CONDITION PARAMETERS: recombinant KvBeta, 4-cyanobenzaldehyde reduction, at 10 µM, hits give high values
EXPERIMENTAL READOUT: fluorescence slope
One number for each entry.

Before answering, review these 10 worked examples.
> print(dat)
                                    compound                             target.entity  endpoint.value
 1  N#Cc1ccccc1Cn1c(=O)n(Cc2ccc(C(=O)NCc3ccco3)cc2)c(=O)c2sccc21  Voltage-gated potassium channel subunit beta-2 (Rattus norvegicus) (UniProt P62483)          -0.577
 2  CCSc1nc2sc3c(c2c2nnc(SCC(=O)NCc4ccco4)n12)CCCC3  Voltage-gated potassium channel subunit beta-2 (Rattus norvegicus) (UniProt P62483)          -0.399
 3  Cn1c(NCc2ccccc2)nc2c1c(=O)n(Cc1ccccc1)c(=O)n2C  Voltage-gated potassium channel subunit beta-2 (Rattus norvegicus) (UniProt P62483)          -0.461
 4       O=C(Nc1ccc(N2CCCCC2)cc1)c1ccc(F)cc1  Voltage-gated potassium channel subunit beta-2 (Rattus norvegicus) (UniProt P62483)          -0.401
 5  COc1ccc2cc(C(c3nnnn3C3CCCCC3)N3CCCCCC3)c3nnnn3c2c1 (stereo unspecified)  Voltage-gated potassium channel subunit beta-2 (Rattus norvegicus) (UniProt P62483)          -0.444
 6         c1ccc(-n2ncc3c(N4CCCC4)ncnc32)cc1  Voltage-gated potassium channel subunit beta-2 (Rattus norvegicus) (UniProt P62483)          -0.378
 7  Cc1ccc(N2CCN(c3ccc(C)cc3)C(CC(=O)O)C2=O)cc1 (stereo unspecified)  Voltage-gated potassium channel subunit beta-2 (Rattus norvegicus) (UniProt P62483)          -0.499
 8           COCCNc1ncnc2c1cnn2-c1ccc(Cl)cc1  Voltage-gated potassium channel subunit beta-2 (Rattus norvegicus) (UniProt P62483)          -0.429
 9  COC(=O)C(NC(=O)c1ccco1)(Nc1ccc(Br)cn1)C(F)(F)F (stereo unspecified)  Voltage-gated potassium channel subunit beta-2 (Rattus norvegicus) (UniProt P62483)          -0.457
10        Clc1ccc(-n2nnnc2Sc2ncnc3sccc23)cc1  Voltage-gated potassium channel subunit beta-2 (Rattus norvegicus) (UniProt P62483)          -0.528

Here are 5 compounds. What values of fluorescence slope were reported for them?
1. CCC(C)NC(=O)CC1Oc2ccc(C)cc2NC1=O (stereo unspecified)
2. O=C1CCC(=O)N1c1nc2n(n1)C(c1ccccc1)C=C(c1ccc(Br)cc1)N2 (stereo unspecified)
3. C=CCn1c(N)c(C(=O)Nc2ccccc2)c2nc3ccccc3nc21
4. C=CCNc1nc(C)nc(OC)n1
5. O=C(CN(C1CCCCC1)S(=O)(=O)c1ccccc1)NCc1cccnc1

1. -0.56
2. -0.374
3. -0.398
4. -0.481
5. -0.308
